meta.source: patent US10112899B2

- System: HIV in the HTLV-1 transformed cell line MT-4
- Run description: organism not typed
- Type: cell-based
- Experimental setup: MT4, 96 h, MT-4 cells; luciferase/cell titer glo readout after 96 hours; 10 point dose response
Reported pIC50 values for a set of compounds
Scale explanation: pIC50 corresponds to minus log10 of a concentration expressed in moles per litre.

Solved entries (count: 10):
Compound	Test system	pIC50
Cc1ccc(-c2c(C)c3c(c(C)c2[C@H](OC(C)(C)C)C(=O)O)CN(CC(C)C)C3)cc1 [Example 25]	HIV in the HTLV-1 transformed cell line MT-4	6.02
Cc1c(-c2c(C)c3c(c(C)c2[C@H](OC(C)(C)C)C(=O)O)CN(C(=O)N2CCC(F)(F)C2)C3)ccc2c1CCCO2 [Example 320]	HIV in the HTLV-1 transformed cell line MT-4	8.52
Cc1ccc(-c2c(C)c3c(c(C)c2[C@H](OC(C)(C)C)C(=O)O)CN(C(=O)N2CCCCC2)C3)cc1 [Example 7]	HIV in the HTLV-1 transformed cell line MT-4	8.40
Cc1c(-c2c(C)c3c(c(C)c2[C@H](OC(C)(C)C)C(=O)O)CN(C(=O)N2CCC(F)(F)C2)C3)cc(F)c2c1CCCO2 (atropisomer, axis not shown; (M)) [Example 100]	HIV in the HTLV-1 transformed cell line MT-4	8.30
Cc1c(-c2c(C)c3c(c(C)c2[C@H](OC(C)(C)C)C(=O)O)CN(C(=O)c2ccc(F)cc2)C3)cc(F)c2c1CCCO2 (atropisomer, axis not shown; (M)) [Example 174]	HIV in the HTLV-1 transformed cell line MT-4	8.40
Cc1c(-c2c(C)c3c(c(C)c2[C@H](OC(C)(C)C)C(=O)O)CN(C(=O)C(=O)N2CCCCC2)C3)cc(F)c2c1CCCO2 (atropisomer, axis not shown; (M)) [Example 215]	HIV in the HTLV-1 transformed cell line MT-4	8.00
Cc1ccc(-c2c(C)c3c(c(C)c2[C@H](OC(C)(C)C)C(=O)O)CN(C(=O)c2ccc(F)c(C)c2)C3)cc1 [Example 246]	HIV in the HTLV-1 transformed cell line MT-4	8.30
Cc1ccc(-c2c(C)c3c(c(C)c2[C@H](OC(C)(C)C)C(=O)O)CN(C(=O)N2CC[C@H](O)C2)C3)cc1 [Example 77]	HIV in the HTLV-1 transformed cell line MT-4	6.80
Cc1cc(Cl)ccc1-c1c(C)c2c(c(C)c1[C@H](OC(C)(C)C)C(=O)O)CN(C(=O)CC(C)(C)C)C2 [Example 325]	HIV in the HTLV-1 transformed cell line MT-4	7.89
CCOCCC(=O)N1Cc2c(C)c(-c3ccc(C)cc3)c([C@H](OC(C)(C)C)C(=O)O)c(C)c2C1 [Example 232]	HIV in the HTLV-1 transformed cell line MT-4	6.83

(Q) I am curious: what pIC50 value has been reported for COc1ccccc1C(=O)N1Cc2c(C)c(-c3cc(F)c4c(c3C)CCCO4)c([C@H](OC(C)(C)C)C(=O)O)c(C)c2C1 (atropisomer, axis not shown; (M)) [Example 199] ?
(A) 8.40

(Q) I am curious: what pIC50 value has been reported for Cc1ccc(-c2c(C)c3c(c(C)c2[C@H](OC(C)(C)C)C(=O)O)CN(C(=O)N2CCCCCCC2)C3)cc1 [Example 65] ?
(A) 8.00

(Q) I am curious: what pIC50 value has been reported for Cc1ccc(-c2c(C)c3c(c(C)c2[C@H](OC(C)(C)C)C(=O)O)CN(C(=O)N2CCCC[C@@H]2C)C3)cc1 [Example 293] ?
(A) 8.40

(Q) I am curious: what pIC50 value has been reported for Cc1c(-c2c(C)c3c(c(C)c2[C@H](OC(C)(C)C)C(=O)O)CN(C(=O)c2cc(F)c(Cl)c(F)c2)C3)cc(F)c2c1CCCO2 (atropisomer, axis not shown; (M)) [Example 175] ?
(A) 8.30

(Q) I am curious: what pIC50 value has been reported for Cc1ccc(-c2c(C)c3c(c(C)c2[C@H](OC(C)(C)C)C(=O)O)CN(C(=O)c2ccc4c(c2)B(O)OC4)C3)cc1 [Example 256] ?
(A) 6.13

(Q) I am curious: what pIC50 value has been reported for COc1ccc(C)cc1C(=O)N1Cc2c(C)c(-c3ccc(C)cc3)c([C@H](OC(C)(C)C)C(=O)O)c(C)c2C1 [Example 250] ?
(A) 8.40

(Q) I am curious: what pIC50 value has been reported for COc1cccc(C(=O)N2Cc3c(C)c(-c4cc(F)c5c(c4C)CCCO5)c([C@H](OC(C)(C)C)C(=O)O)c(C)c3C2)c1F (atropisomer, axis not shown; (M)) [Example 148] ?
(A) 8.05

(Q) I am curious: what pIC50 value has been reported for COc1cc(C(=O)N2Cc3c(C)c(-c4ccc(C)cc4)c([C@H](OC(C)(C)C)C(=O)O)c(C)c3C2)ccc1C [Example 222] ?
(A) 8.40

(Q) I am curious: what pIC50 value has been reported for Cc1cc(C(=O)N2Cc3c(C)c(-c4cc(F)c5c(c4C)CCCO5)c([C@H](OC(C)(C)C)C(=O)O)c(C)c3C2)ccc1F (atropisomer, axis not shown; (M)) [Example 145] ?
(A) 8.70
